The values you see were collected from patent US11505835B2.

System: E. coli
Assay: AST by counting individual bacteria in a flow cytometry type instrument (Aquila 400); MIC from differential growth relative to positive control
Assay type: cell-based
Conditions: Escherichia coli, 24 h, cut-off 15%, 24 hours, Müller Hinton broth, 35° C.; read-out: MIC
readout: MIC (µg/mL)

# compound, unit-info, quantitative-result
data = [
    ("C[C@@H](O)[C@H]1C(=O)N2C(C(=O)O)=C(S[C@@H]3CN[C@H](C(=O)N(C)C)C3)[C@H](C)[C@H]12 [Meropenem]", "µg/mL", 0.25),
    ("CC(C)(O/N=C(\\C(=O)N[C@@H]1C(=O)N2C(C(=O)[O-])=C(C[n+]3ccccc3)CS[C@H]12)c1csc(N)n1)C(=O)O [Ceftazidime]", "µg/mL", 0.25),
    ("CO/N=C(\\C(=O)N[C@@H]1C(=O)N2C(C(=O)O)=C(COC(C)=O)CS[C@H]12)c1csc(N)n1 [Cefotaxime]", "µg/mL", 0.06),
    ("O=C(O)c1cn(C2CC2)c2cc(N3CCNCC3)c(F)cc2c1=O [Ciprofloxacin]", "µg/mL", 0.008),
]
